assay: solvent given as SMILES; conditions: in COC(C)=O
Answer each item with its documented solvation free energy, 298 K.
Respond numerically; units are kcal/mol and should not be typed.

Which value of solvation free energy, 298 K has been reported for CC(C)C(C)C(C)C in the records?
-4.22

Which value of solvation free energy, 298 K has been reported for O=C(O)c1ccc(Cl)c([N+](=O)[O-])c1 in the records?
-13.4

Which value of solvation free energy, 298 K has been reported for NC(=O)c1ccccc1O in the records?
-12.8

Which value of solvation free energy, 298 K has been reported for CC#N in the records?
-4.53

Which value of solvation free energy, 298 K has been reported for O=C(O)c1cc([N+](=O)[O-])ccc1Cl in the records?
-12.9

Which value of solvation free energy, 298 K has been reported for c1cc2ccc3cccc4ccc(c1)c2c34 in the records?
-12.6

Which value of solvation free energy, 298 K has been reported for CCc1ccc2c(c1)C(=O)c1ccccc1C2=O in the records?
-13.7

Which value of solvation free energy, 298 K has been reported for CC(C)CCC(C)C in the records?
-4.11

Which value of solvation free energy, 298 K has been reported for CCCCCCCC in the records?
-4.49

Which value of solvation free energy, 298 K has been reported for C#CCC in the records?
-3.03

Which value of solvation free energy, 298 K has been reported for CCO in the records?
-4.11

Which value of solvation free energy, 298 K has been reported for C[N+](=O)[O-] in the records?
-5.13

Which value of solvation free energy, 298 K has been reported for CCCCCCC in the records?
-3.89

Which value of solvation free energy, 298 K has been reported for CCCCCC in the records?
-3.3

Which value of solvation free energy, 298 K has been reported for c1ccc2cc3ccccc3cc2c1 in the records?
-11.1

Which value of solvation free energy, 298 K has been reported for O=C(O)c1cccc([N+](=O)[O-])c1 in the records?
-12.1

Which value of solvation free energy, 298 K has been reported for O=C(O)c1cccc([N+](=O)[O-])c1C(=O)O in the records?
-18.2

Which value of solvation free energy, 298 K has been reported for FC(F)(F)C(Cl)Br (stereo not drawn) in the records?
-4.61

----------
test: solvent given as SMILES; conditions: in CC(C)CC(C)(C)C
Answer each item with its documented solvation free energy, 298 K.
Respond numerically; units are kcal/mol and should not be typed.

Which value of solvation free energy, 298 K has been reported for CC(=O)N(C)C in the records?
-5.19

Which value of solvation free energy, 298 K has been reported for c1ccc2ccccc2c1 in the records?
-6.92

Which value of solvation free energy, 298 K has been reported for C#C in the records?
-0.37

Which value of solvation free energy, 298 K has been reported for CC(C)N(N=O)C(C)C in the records?
-6.07

Which value of solvation free energy, 298 K has been reported for c1ccc2cc3ccccc3cc2c1 in the records?
-9.93

Which value of solvation free energy, 298 K has been reported for CCI in the records?
-3.61

Which value of solvation free energy, 298 K has been reported for CCCCCCC in the records?
-4.6

Which value of solvation free energy, 298 K has been reported for O=[N+]([O-])c1cc[n+]([O-])cc1 in the records?
-7.06

----------
assay: solvent given as SMILES; conditions: in CO
Endpoint Label: solvation free energy, 298 K (kcal/mol)
Respond numerically; units are kcal/mol and should not be typed.

Which value of solvation free energy, 298 K has been reported for C=CC in the records?
-1.3

Which value of solvation free energy, 298 K has been reported for O=S(=O)(c1ccccc1)c1ccccc1 in the records?
-13.8

Which value of solvation free energy, 298 K has been reported for CI in the records?
-3.21

Which value of solvation free energy, 298 K has been reported for CCC(=O)OC in the records?
-4.32

Which value of solvation free energy, 298 K has been reported for c1ccc(P(c2ccccc2)c2ccccc2)cc1 in the records?
-15.4

Taken from the CombiSolv-Exp solvation set (Vermeire and Green 2021).
